molecular target: T1, HLA-B*07:02 (human); assay: UV ligand exchange ELISA; exchange yield grade
T1 construct: Peptide-receptive MHC class I monomer made by UV cleavage of a UV-sensitive ligand
recorded.metric: peptide exchange yield

Look over these answered cases.
[[record]]
binder = "MPLSTIREV"
recorded_metric = "peptide exchange yield"
result = "20 to 50%"

[[record]]
binder = "RPMTPTQIGPSL"
recorded_metric = "peptide exchange yield"
result = "50 to 75%"

[[record]]
binder = "RPFADLLGTAF"
recorded_metric = "peptide exchange yield"
result = "50 to 75%"

[[record]]
binder = "NPLTKLLAI"
recorded_metric = "peptide exchange yield"
result = "50 to 75%"

[[record]]
binder = "YPYQERVFL"
recorded_metric = "peptide exchange yield"
result = "20 to 50%"


*Q* Any idea what peptide exchange yield was measured for `MPSSDTTVTF` ?
*A* 50 to 75%

*Q* peptide exchange yield lookup needed for `APAPAEKTPV` , thanks.
*A* 50 to 75%

*Q* Look up peptide exchange yield: `RPRGLALVL`
*A* 50 to 75%
